test summary: MTT assay
Type: cell-based
conditions: human, HEK-293 cells (normal reference cell line), HEK-293 (normal cells), 24h, read-out: IC50, cytotoxicity
assay endpoint: IC50 at 24 h

Guide cases for IC50 at 24 h, answers given:
O=C(NC(=S)NNC(=O)c1ccccc1[N+](=O)[O-])c1ccc([N+](=O)[O-])cc1 | > 100 µg/mL
O=C(Cc1cccc2ccccc12)NNC(=S)NC(=O)c1ccccc1Cl | > 100 µg/mL

[Q] // lookup IC50 at 24 h for CC(C)c1cccc(C(C)C)c1NC(=S)NNC(=O)Cc1cccc2ccccc12
[A] 17.6 µg/mL

---

Test system: LS180 (colon cancer cell line)
test summary: MTT assay
Format: cell-based
conditions: Homo sapiens, 48 h, read-out: IC50, cytotoxicity
Method: Therefore, the whole set of compounds were tested by using MTT assay in order to check their overall cytotoxic effect. The growth of cells was monitored after 24 and 48 h of incubation with the increased concentrations (1–100 µg/ml) of the thiosemicarbazide derivatives. […] The synthesised compounds were dissolved in DMSO in order to obtain stock solutions. […] The results of the MTT assay were expressed as mean ± SD. […]
// values below are reported IC50
# value in µg/mL; strip the unit string

CC(C)c1cccc(C(C)C)c1NC(=S)NNC(=O)Cc1cccc2ccccc12 | 2.54
COc1cc([C@@H]2c3cc4c(cc3[C@@H](O[C@@H]3O[C@@H]5CO[C@@H](C)O[C@H]5[C@H](O)[C@H]3O)[C@H]3COC(=O)[C@H]23)OCO4)cc(OC)c1O [Etoposide, etoposide, reference compound] | 11.7
O=C(Cc1cccc2ccccc12)NNC(=S)Nc1c(F)cccc1F | 12.6
O=C(NNC(=S)Nc1ccc(N=Nc2ccccc2)cc1)c1ccccc1[N+](=O)[O-] | 2.7
O=C(NNC(=S)NC(=O)c1ccccc1Cl)c1ccc(O)c([N+](=O)[O-])c1 | 24.7

[Q] // lookup IC50 for O=C(Cc1cccc2ccccc12)NNC(=S)Nc1ccc(N=Nc2ccccc2)cc1
[A] 2.24

[Q] // lookup IC50 for O=C(NNC(=S)Nc1c(F)cccc1F)c1ccccc1[N+](=O)[O-]
[A] 55.6

[Q] // lookup IC50 for Cc1cccc(C(=O)NC(=S)NNC(=O)c2ccccc2[N+](=O)[O-])c1
[A] 19.8
